Entry source: ChEMBL document CHEMBL1201862

Tested on: OVCAR-4
Assay: NCI tumour cell line growth inhibition, 48 h
Activity calls are given as the source filed them. Cut-off read from the data, not from the text of the source: active = GI50 up to about 1.1 µM and inactive = higher.
observation type: GI50

// below: answered molecules
molecule | GI50
COc1cc2c(c(OC)c1OC)C(=O)[C@H](Br)[C@H]2NC(=O)NCCCl | 71 µM (inactive)
COc1cc2cc[n+]3c(C)c4cc(OC)c(OC)cc4c([O-])c3c2cc1OC | 85.7 µM (inactive)
Nc1ccc2c(SCC(=O)Nc3ccccc3-c3ccccc3NC(=O)CSc3c4ccccc4nc4cc(N)ccc34)c3ccccc3nc2c1 | 29 µM (inactive)
CC1(C)CC(=O)c2c([nH]c(=S)c(C#N)c2-c2ccc(Br)cc2)C1 | 34.4 µM (inactive)
COc1cccc(NC(=O)CSc2nnc(Cc3ccccc3)o2)c1 | > 100 µM (inactive)
O=S1(=O)Cc2ccc3c4c2-c2c(ccc5ccc(c-4c25)CS(=O)(=O)C3)C1 | > 100 µM (inactive)
O=S(=O)(/N=C(\NO)Nc1ccc(Cl)cc1)c1cccc2nsnc12 | 13.7 µM (inactive)
O=c1/c(=C/c2ccc3c(c2)OCO3)sc2nnc(-c3ccco3)n12 | > 100 µM (inactive)

stdin: Form field: reported GI50 of CC12Oc3ccc4ccccc4c3CC1Cc1c(ccc3ccccc13)O2 (stereo unspecified)
stdout: 26.5 µM (inactive)

stdin: Also, CCOP(=O)(OCC)C(Nc1ccc(F)cc1)c1cccc([N+](=O)[O-])c1 (stereo unspecified) please.
stdout: 57.4 µM (inactive)

stdin: Also, CCOP(=O)(OCC)/C(C#N)=C/c1ccc(-c2ccc(F)cc2F)o1 please.
stdout: 18.2 µM (inactive)

stdin: Also, O=c1nc(N2CCNCC2)oc2cc(Cl)oc(=O)c12 please.
stdout: 5.45 µM (inactive)

stdin: Also, C=C(C)[C@@H]1CCC2=C[C@@H](OC2=O)[C@@H](C(=C)C)C2=CC(C(=O)O)=C(C1)O2 please.
stdout: > 100 µM (inactive)

stdin: Also, COc1ccc(OC)c(/C=C/C(=O)C(C)(C)C)c1 please.
stdout: 22.6 µM (inactive)

stdin: Also, O=C(CCC(=O)Nc1ccc(Cl)c(Cl)c1)CC(=O)c1ccc(F)cc1 please.
stdout: > 100 µM (inactive)

* * *

Tested on: OVCAR-8
Experiment: NCI tumour cell line growth inhibition, 48 h
Activity calls are given as the source filed them. Cut-off read from the data, not from the text of the source: active = GI50 up to about 1.1 µM and inactive = higher.
observation type: GI50

// below: answered molecules
molecule | GI50
COc1ccc(CNc2cc(OC)c(OC)c(OC)c2)cc1 | 8.99 µM (inactive)
O=c1cc(NNCc2ccccc2)[nH]c(=O)[nH]1 | > 100 µM (inactive)
COc1ccc(Nc2c(C#N)c3n(c4ccccc24)c2ccccc2[n+]3C)cc1OC | 1.67 µM (inactive)
Cc1c(O)c(=O)ccn1CCc1ccc(O)cc1 | 31.3 µM (inactive)
CCOC(=O)Nn1c(C)nnc1CC#N | > 100 µM (inactive)
CSc1nc(C)cc(=O)n1C1OC(COC(C)=O)C(OC(C)=O)C(OC(C)=O)C1OC(C)=O (configuration not stated) | > 100 µM (inactive)

stdin: Form field: reported GI50 of O=C(O)c1nc2ccc(C(F)(F)F)cc2nc1Nc1ccc(Cl)c(Cl)c1
stdout: 4.91 µM (inactive)

stdin: Also, c1ccc(NNC2=NCCN2)cc1 please.
stdout: > 100 µM (inactive)
